Listing of entries alongside the reported pIC50.
- assayedTarget: A-Raf kinase (Homo sapiens, UniProt P10398, Y301D/Y302D)
- Construct: purchased Sigma
- Sequence (P10398 with tags, fused parts or gaps Y301D/Y302D): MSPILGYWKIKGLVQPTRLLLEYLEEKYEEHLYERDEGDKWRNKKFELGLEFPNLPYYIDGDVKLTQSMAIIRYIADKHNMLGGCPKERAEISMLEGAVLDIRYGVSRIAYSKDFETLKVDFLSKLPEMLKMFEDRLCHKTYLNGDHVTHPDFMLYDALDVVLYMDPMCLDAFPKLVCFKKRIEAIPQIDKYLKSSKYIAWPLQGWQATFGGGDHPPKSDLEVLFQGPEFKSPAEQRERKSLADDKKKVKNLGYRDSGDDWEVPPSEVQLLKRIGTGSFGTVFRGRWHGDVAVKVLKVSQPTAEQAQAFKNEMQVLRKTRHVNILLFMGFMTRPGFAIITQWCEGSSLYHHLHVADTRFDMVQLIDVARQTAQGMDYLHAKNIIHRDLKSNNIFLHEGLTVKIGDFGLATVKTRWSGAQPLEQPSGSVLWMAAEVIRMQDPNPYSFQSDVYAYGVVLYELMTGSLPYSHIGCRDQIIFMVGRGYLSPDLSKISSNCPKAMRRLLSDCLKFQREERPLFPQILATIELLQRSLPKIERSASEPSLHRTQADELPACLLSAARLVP
- experimentSummary: Biochemical assay for A-Raf.1 (coupled pyruvate kinase/lactate dehydrogenase)
- conditionSet: read-out: ARAF.1 IC50
pIC50: −log10 of the molar value.

Would you please look over these solved cases?
[[record]]
compound = "Cc1ccc(NC(=O)NCCC(C)(C)C)cc1-c1cc(N2CCOCC2)nc(N2CC(C)(O)C2)n1 [Example 1]"
testresult = "< 6.00"

[[record]]
compound = "Cc1ccc(NC(=O)N2CC[C@@H](C(F)(F)F)C2)cc1-c1cncc(-c2cc(NC(=O)C3CC3)ncn2)c1 [Example 210]"
testresult = "6.00 to 6.30"


Here is another compound to look at.
Give the reported value of pIC50 for this record: COC(C)(C)CCNC(=O)Nc1ccc(C)c(-c2cc(-c3ccnc(NC(C)=O)c3)n(C)c(=O)c2)c1 [Example 60]
< 6.00
